// data source = paper PMC11509546

Molecular target: Angiotensin-I converting enzyme (ACE) (Homo sapiens, UniProt P12821)
Construct: purchased Dojindo Inc., Kumamoto, Japan ACE kit-WST
Sequence (P12821 30-1306, species assumed): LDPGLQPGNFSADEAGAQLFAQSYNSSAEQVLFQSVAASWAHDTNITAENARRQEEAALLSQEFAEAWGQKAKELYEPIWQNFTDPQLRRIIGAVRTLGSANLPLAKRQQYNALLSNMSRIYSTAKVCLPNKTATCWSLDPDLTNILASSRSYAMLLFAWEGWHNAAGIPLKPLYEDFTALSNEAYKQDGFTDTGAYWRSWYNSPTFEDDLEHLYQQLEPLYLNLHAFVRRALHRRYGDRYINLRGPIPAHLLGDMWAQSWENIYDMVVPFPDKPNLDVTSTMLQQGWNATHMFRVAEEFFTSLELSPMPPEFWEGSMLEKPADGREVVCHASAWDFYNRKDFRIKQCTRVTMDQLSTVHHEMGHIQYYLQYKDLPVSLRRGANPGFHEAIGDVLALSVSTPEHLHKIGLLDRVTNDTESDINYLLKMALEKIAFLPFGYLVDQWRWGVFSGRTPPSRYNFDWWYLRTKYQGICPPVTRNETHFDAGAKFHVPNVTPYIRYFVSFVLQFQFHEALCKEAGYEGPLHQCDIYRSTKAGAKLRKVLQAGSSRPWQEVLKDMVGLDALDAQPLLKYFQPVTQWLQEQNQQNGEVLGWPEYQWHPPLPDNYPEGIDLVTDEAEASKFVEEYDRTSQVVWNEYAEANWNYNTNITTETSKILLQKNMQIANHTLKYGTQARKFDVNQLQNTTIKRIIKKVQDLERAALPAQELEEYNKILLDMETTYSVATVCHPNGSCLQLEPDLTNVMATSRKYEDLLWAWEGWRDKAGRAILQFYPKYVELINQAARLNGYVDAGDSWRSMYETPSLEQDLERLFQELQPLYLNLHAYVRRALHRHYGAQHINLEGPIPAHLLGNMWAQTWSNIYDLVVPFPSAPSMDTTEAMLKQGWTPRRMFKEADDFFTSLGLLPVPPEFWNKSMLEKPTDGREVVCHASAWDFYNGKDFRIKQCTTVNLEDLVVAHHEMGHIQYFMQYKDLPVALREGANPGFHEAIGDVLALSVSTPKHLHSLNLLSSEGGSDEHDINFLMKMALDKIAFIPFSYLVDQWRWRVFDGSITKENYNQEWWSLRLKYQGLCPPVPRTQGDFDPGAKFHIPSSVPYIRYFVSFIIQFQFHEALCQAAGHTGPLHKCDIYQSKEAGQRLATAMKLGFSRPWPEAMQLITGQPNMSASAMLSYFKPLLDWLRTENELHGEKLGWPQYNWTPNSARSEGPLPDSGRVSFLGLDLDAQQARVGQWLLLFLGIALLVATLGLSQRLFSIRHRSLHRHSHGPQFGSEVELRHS
Assay: ACE inhibition activity assay (ACE kit-WST, colorimetric)
Assay type: biochemical
Conditions: 3-hydroxybutyryl-Gly-Gly-Gly substrate, mean ± SD of triplicate, read-out: ACE Inhibitory Activity IC50 Value (converted)
Where a SMILES comes first, the peptide text is derived from it.
MEASURED PROPERTY: IC50 (µM)

1 = CC(C)C[C@H](NC(=O)[C@@H](N)CC(N)=O)C(=O)NCC(=O)N[C@@H](CCC(=O)O)C(=O)N[C@@H](Cc1c[nH]c2ccccc12)C(=O)O [NLGEW] (H-NLGEW-OH)
2 = CC(C)C[C@H](NC(=O)[C@@H](N)CCC(N)=O)C(=O)N[C@@H](CCC(N)=O)C(=O)N[C@@H](Cc1ccccc1)C(=O)N1CCC[C@H]1C(=O)N[C@H](C(=O)NCC(=O)N[C@@H](CCCNC(=N)N)C(=O)O)C(C)C [QLQFPVGR] (H-QLQFPVGR-OH)
Quick check, higher IC50 between 1 and 2 ? To answer, give the label that identifies your chosen option.
1
(1: 236 µM, 2: 4.24 µM)

----------
Target: Angiotensin-I converting enzyme (ACE) (Homo sapiens, UniProt P12821)
Construct: purchased Dojindo Inc., Kumamoto, Japan ACE kit-WST
Assay: ACE inhibition activity assay (ACE kit-WST, colorimetric)
Format: biochemical
Settings: 3-hydroxybutyryl-Gly-Gly-Gly substrate, mean ± SD of triplicate, read-out: ACE Inhibitory Activity IC50 Value (converted)
Where a SMILES comes first, the peptide text is derived from it.
MEASURED PROPERTY: IC50

Example entries begin here.
- MOLECULE: "CC(C)[C@H](N)C(=O)N[C@@H](C)C(=O)N[C@@H](CCCNC(=N)N)C(=O)O [VAR] (H-Val-Ala-Arg-OH)"
  IC50: "302 µM"
- MOLECULE: "CC(C)C[C@H](N)C(=O)NCC(=O)N1CCC[C@H]1C(=O)N[C@@H](Cc1ccc(O)cc1)C(=O)O [LGPY] (H-LGPY-OH)"
  IC50: "> 2230 µM"

GET /values?readout=IC50&system=Angiotensin-I converting enzyme (ACE) (Homo sapiens, UniProt P12821)&item= CC(C)C[C@H](N)C(=O)N[C@@H](CC(=O)O)C(=O)N[C@@H](Cc1c[nH]c2ccccc12)C(=O)O [LDW] (H-Leu-Asp-Trp-OH)
> 2310 µM
